Kindly state IC50 for each of the entries shown.
Biological target: Carnitine O-palmitoyltransferase 1, liver isoform (Rattus norvegicus)
Sequence (P32198 whole entry, canonical isoform): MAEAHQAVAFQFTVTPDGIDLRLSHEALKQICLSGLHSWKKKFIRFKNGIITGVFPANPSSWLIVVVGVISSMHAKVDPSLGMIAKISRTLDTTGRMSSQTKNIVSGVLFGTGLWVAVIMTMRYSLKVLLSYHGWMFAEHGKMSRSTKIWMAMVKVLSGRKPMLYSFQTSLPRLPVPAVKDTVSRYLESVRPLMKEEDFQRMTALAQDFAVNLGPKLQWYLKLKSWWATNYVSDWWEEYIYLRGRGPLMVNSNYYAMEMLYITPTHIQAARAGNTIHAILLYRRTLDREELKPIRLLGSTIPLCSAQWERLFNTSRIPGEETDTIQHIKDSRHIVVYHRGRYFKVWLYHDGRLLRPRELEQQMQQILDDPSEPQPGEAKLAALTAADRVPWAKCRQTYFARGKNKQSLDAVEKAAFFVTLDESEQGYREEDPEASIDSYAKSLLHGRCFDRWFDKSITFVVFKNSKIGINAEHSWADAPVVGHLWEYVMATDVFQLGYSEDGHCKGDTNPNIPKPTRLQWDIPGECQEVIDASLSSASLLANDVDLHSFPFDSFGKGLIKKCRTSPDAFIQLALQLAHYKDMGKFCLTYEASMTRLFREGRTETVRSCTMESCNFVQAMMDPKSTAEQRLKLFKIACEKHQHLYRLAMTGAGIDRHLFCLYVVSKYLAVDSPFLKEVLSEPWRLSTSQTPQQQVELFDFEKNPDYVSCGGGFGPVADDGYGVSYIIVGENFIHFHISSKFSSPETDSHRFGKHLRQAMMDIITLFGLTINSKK
Experiment: SUPPLEMENTARY: Inhibition of Carnitine palmitoyltransferase 1, liver isoform
One number for each entry, in nM.

// for each compound below, give its IC50
1. COc1ccc(Cl)cc1S(=O)(=O)N1COCc2ccc(C(=O)Nc3nc(CC(=O)O)cs3)cc21
2. COc1ccc(Cl)cc1S(=O)(=O)N1CCOc2c1cc(C(=O)Nc1ccc(C(=O)O)cc1)cc2C(F)(F)F
3. O=C(COc1ccccc1)N1CCCC[C@@H]1c1nc(-c2cccc([N+](=O)[O-])n2)no1
4. COc1ccc(Cl)cc1S(=O)(=O)N1C[C@@H](C(=O)O)Oc2ccc(C(=O)Nc3ccccc3)cc21

[82.9, 156, 760, 14.6]
